- Tested on: K562/A02
- PROCEDURE_TEXT: Reversal of P-gp-mediated resistance to adriamycin in human K562/A02 cells assessed as reduction in adriamycin IC50 at 5 uM after 48 hrs by MTT assay relative to control
- Assay type: cell-based
In this section we review reported fold change (FC) values for a set of molecules.

Take a look at these entries with their results.
>>> observed_value("COc1cc2c(cc1OC)CN(CCn1cc(COc3ccc4ccccc4c3)nn1)CC2")
3.6
>>> observed_value("COc1cc2c(cc1OC)CN(CCc1ccc(-n3cc(COc4ccc([N+](=O)[O-])cc4)nn3)cc1)CC2")
5.4
>>> observed_value("COc1cc2c(cc1OC)CN(CCn1cc(COc3cccc4ccccc34)nn1)CC2")
5.7

Continue with the next molecule.
Sure, the documented fold change (FC) for COc1cc2c(cc1OC)CN(CCc1ccc(-n3cc(COc4ccccc4)nn3)cc1)CC2 is 31.4

====

- Tested on: K562
- PROCEDURE_TEXT: Cytotoxicity against human K562 cells assessed as cell viability after 48 hrs by MTT assay
- Format: cell-based
- MEASUREMENT_CONTEXT: K562, 48 h
OBSERVABLE: IC50

Take a look at these entries with their results.
>>> observed_value("COc1cc2c(cc1OC)CN(CCn1cc(COc3ccc(C(C)C)cc3)nn1)CC2")
"> 100 µM"
>>> observed_value("COc1cc2c(cc1OC)CN(CCn1cc(COc3ccc(C(C)(C)C)cc3)nn1)CC2")
"> 100 µM"
>>> observed_value("CCc1ccc(OCc2cn(-c3ccc(CCN4CCc5cc(OC)c(OC)cc5C4)cc3)nn2)cc1")
"> 100 µM"
>>> observed_value("COc1cc2c(cc1OC)CN(CCn1cc(COc3ccc(C)c(C)c3)nn1)CC2")
"> 100 µM"
>>> observed_value("COc1cc2c(cc1OC)CN(CCc1ccc(-n3cc(COc4ccc5ccccc5c4)nn3)cc1)CC2")
"> 100 µM"

Sure, the documented IC50 for CCc1ccc(OCc2cn(CCN3CCc4cc(OC)c(OC)cc4C3)nn2)cc1 is > 100 µM

Sure, the documented IC50 for COc1cc2c(cc1OC)CN(CCn1cc(COc3ccc(C)cc3C)nn1)CC2 is > 100 µM

Sure, the documented IC50 for COc1cc2c(cc1OC)CN(CCc1ccc(-n3cc(COc4cccc5ccccc45)nn3)cc1)CC2 is > 100 µM

Sure, the documented IC50 for COc1ccc(OCc2cn(-c3ccc(CCN4CCc5cc(OC)c(OC)cc5C4)cc3)nn2)cc1 is > 100 µM

Sure, the documented IC50 for COc1cc2c(cc1OC)CN(CCn1cc(COc3ccccc3OC)nn1)CC2 is > 100 µM

Sure, the documented IC50 for COc1cc2c(cc1OC)CN(CCc1ccc(-n3cc(COc4cccc5cccnc45)nn3)cc1)CC2 is 28 µM

Sure, the documented IC50 for COc1ccc(C(=O)Nc2ccccc2C(=O)Nc2ccc(CCN3CCc4cc(OC)c(OC)cc4C3)cc2)cc1OC is 19.6 µM

Sure, the documented IC50 for COc1cc2c(cc1OC)CN(CCc1ccc(-n3cc(COc4ccc([N+](=O)[O-])cc4)nn3)cc1)CC2 is 49.2 µM

Sure, the documented IC50 for COc1cc2c(cc1OC)CN(CCc1ccc(-n3cc(COc4ccc(C(C)C)cc4)nn3)cc1)CC2 is > 100 µM

Sure, the documented IC50 for COc1cc2c(cc1OC)CN(CCn1cc(COc3ccc4ccccc4c3)nn1)CC2 is > 100 µM

Sure, the documented IC50 for COc1cc2c(cc1OC)CN(CCc1ccc(-n3cc(COc4ccc(OC(F)(F)F)cc4)nn3)cc1)CC2 is 37.4 µM

Sure, the documented IC50 for COc1cc2c(cc1OC)CN(CCc1ccc(-n3cc(COc4ccccc4NC(=O)c4ccccc4)nn3)cc1)CC2 is > 100 µM

====

- Test system: K562/A02
- PROCEDURE_TEXT: Reversal of P-gp-mediated resistance to adriamycin in human K562/A02 cells assessed as reduction in adriamycin IC50 at 5 uM after 48 hrs by MTT assay relative to control
- Type: cell-based
Each record gets a class by fold change (FC): low class (below 6), middle class (6 to below 8), high class (8 or more)

Example cases with answers are listed next.
>>> class_assignment("COc1cc2c(cc1OC)CN(CCn1cc(COc3ccc(C)c(C)c3)nn1)CC2")
"high class"
>>> class_assignment("COc1cc2c(cc1OC)CN(CCc1ccc(-n3cc(COc4ccccc4NC(=O)c4ccccc4)nn3)cc1)CC2")
"high class"
>>> class_assignment("COc1ccc(OCc2cn(CCN3CCc4cc(OC)c(OC)cc4C3)nn2)cc1")
"low class"

Query: Place this molecule in its band: COc1cc2c(cc1OC)CN(CCn1cc(COc3ccc(C)cc3)nn1)CC2
Response: middle class

Query: Place this molecule in its band: COc1cc2c(cc1OC)CN(CCn1cc(COc3ccccc3OC)nn1)CC2
Response: low class

Query: Place this molecule in its band: COc1cc2c(cc1OC)CN(CCc1ccc(-n3cc(COc4ccccc4[N+](=O)[O-])nn3)cc1)CC2
Response: middle class

Query: Place this molecule in its band: COc1cc2c(cc1OC)CN(CCc1ccc(-n3cc(COc4ccc5ccccc5c4)nn3)cc1)CC2
Response: high class

Query: Place this molecule in its band: COc1cc2c(cc1OC)CN(CCc1ccc(-n3cc(COc4ccc(C)cc4)nn3)cc1)CC2
Response: low class

====

- Test system: K562
- PROCEDURE_TEXT: Cytotoxicity against human K562 cells assessed as cell viability after 48 hrs by MTT assay
- Assay type: cell-based
- MEASUREMENT_CONTEXT: K562, 48 h
pIC50: −log10 of the molar value. Counter-ions that a name gives are not always drawn.
OBSERVABLE: pIC50

Take a look at these entries with their results.
>>> observed_value("COc1ccc(OCc2cn(CCN3CCc4cc(OC)c(OC)cc4C3)nn2)cc1")
"< 4.00"
>>> observed_value("COc1cc2c(cc1OC)CN(CCn1cc(COc3cccc4ccccc34)nn1)CC2")
"< 4.00"
>>> observed_value("COc1cc2c(cc1OC)CN(CCc1ccc(-n3cc(COc4ccc(C)cc4)nn3)cc1)CC2")
"< 4.00"
>>> observed_value("COc1cc2c(cc1OC)CN(CCc1ccc(-n3cc(COc4ccccc4)nn3)cc1)CC2")
"< 4.00"
>>> observed_value("COc1cccc2c1C(=O)c1c(O)c3c(c(O)c1C2=O)C[C@@](O)(C(=O)CO)C[C@@H]3O[C@H]1C[C@H](N)[C@H](O)[C@H](C)O1 [DOXORUBICIN HYDROCHLORIDE]")
5.21
>>> observed_value("COc1cc2c(cc1OC)CN(CCn1cc(COc3ccc(F)cc3)nn1)CC2")
"< 4.00"

Entry COc1cc2c(cc1OC)CN(CCn1cc(COc3ccccc3C(C)(C)C)nn1)CC2 , tested on K562, has a reported pIC50 of < 4.00

Entry COc1cc2c(cc1OC)CN(CCn1cc(COc3ccc(C)cc3)nn1)CC2 , tested on K562, has a reported pIC50 of < 4.00

Entry COc1cc2c(cc1OC)CN(CCc1ccc(-n3cc(COc4ccc(C(C)(C)C)cc4)nn3)cc1)CC2 , tested on K562, has a reported pIC50 of 4.68

====

In this section we review reported pIC50 values for a set of molecules.
- Tested on: K562
- PROCEDURE_TEXT: Cytotoxicity against human K562 cells assessed as cell viability after 48 hrs by MTT assay
- Type: cell-based
- MEASUREMENT_CONTEXT: K562, 48 h
Entry type: numeric. Quantity: pIC50, the -log10 of concentration in molar units.

>>> observed_value("COc1ccc(CCN(C)CCCC(C#N)(c2ccc(OC)c(OC)c2)C(C)C)cc1OC (stereo not drawn)")
4.19

Continue with the next molecule.
Sure, the documented pIC50 for COc1cc2c(cc1OC)CN(CCc1ccc(-n3cc(COc4ccccc4[N+](=O)[O-])nn3)cc1)CC2 is 4.31

// data source = ChEMBL document CHEMBL3779819
